test: Antagonist activity at CRTH2 receptor in human eosinophils by ESC assay
Assign IC50 to each entry below.
Answer in nM, number only, no unit symbol.

Input Cc1c(CC(=O)O)c2ccncn2c1Cc1ccccc1S(=O)(=O)c1ccccc1 . Output IC50: 12

Recorded IC50 (molecule COc1ccc(S(=O)(=O)c2ccc(F)cc2)c(Cc2c(C)c(CC(=O)O)c3ccncn23)c1 ): 6
